Where do the numbers come from? From ChEMBL document CHEMBL1201862.

tested on: DMS-114; assay: NCI tumour cell line growth inhibition, 48 h
Activity calls are given as the source filed them. No stated cut-off is given here; in the data, active = GI50 up to about 1.1 µM and inactive = higher.
Parameter: GI50

>  <Smiles Str>
O=C1c2c(O)cccc2C(C(=O)CCCCCC(=O)C2c3cccc(O)c3C(=O)c3c(O)cccc32)c2cccc(O)c21

>  <Parameter>
GI50

>  <Observed Result>
0.512 µM (active)

$$$$
>  <Smiles Str>
Cc1ccc(/N=N/c2c(-c3ccccc3)nn(C(=O)CC(=O)Nc3ccc(Cl)cc3)c2-c2ccccc2)cc1

>  <Parameter>
GI50

>  <Observed Result>
44.5 µM (inactive)

$$$$

QUERY: Would you kindly share the measured GI50 for CCC/C=C/C=C\C(=O)O[C@@H]1[C@@H](C)[C@]2(O)[C@@H]3C=C(C)C(=O)[C@H]3CC(COC(C)=O)=C[C@H]2[C@@H]2C(C)(C)[C@]12OC(C)=O ?
RESULT: 45.1 µM (inactive)

---

test system: K562; assay: NCI tumour cell line growth inhibition, 48 h
Activity calls are given as the source filed them. No stated cut-off is given here; in the data, active = GI50 up to about 1.1 µM and inactive = higher.
Parameter: GI50

>  <Molecule>
CCOC(=O)c1nc2ccc(C(F)(F)F)cc2nc1Oc1ccc(C#N)cc1

>  <Parameter>
GI50

>  <Observed Result>
> 100 µM (inactive)

$$$$
>  <Molecule>
Nc1nc(Cl)cc(Nc2ccc3c(c2)CCC3)n1

>  <Parameter>
GI50

>  <Observed Result>
32.7 µM (inactive)

$$$$
>  <Molecule>
CC(=O)O[C@H]1C(=O)[C@@]2(C)[C@H]([C@H](OC(=O)c3ccccc3)[C@]3(O)C[C@H](OC(=O)[C@H](O)[C@@H](NC(=O)CC(C)(C)C)c4ccccc4)C(C)=C1C3(C)C)C1(OC(C)=O)CO[C@@H]1C[C@@H]2O (some centres not stated)

>  <Parameter>
GI50

>  <Observed Result>
0.00113 µM (active)

$$$$
>  <Molecule>
CN(C)CCCNc1ccc2ncn3c4ccccc4c(=O)c1c23

>  <Parameter>
GI50

>  <Observed Result>
3.77 µM (inactive)

$$$$
>  <Molecule>
O=C(O)c1ccc(C2C3C=CC(C3)C2[N+](=O)[O-])cc1 (configuration not stated)

>  <Parameter>
GI50

>  <Observed Result>
> 100 µM (inactive)

$$$$

QUERY: Would you kindly share the measured GI50 for Cc1cccc(-c2cccc(COCc3cccc(-c4cccc(CO)n4)n3)n2)n1 ?
RESULT: > 50 µM (inactive)

QUERY: And the next one, CCOC(=O)/C=C/[C@H](O[Si](CC)(CC)CC)C(C)(C)C ?
RESULT: 65.8 µM (inactive)

---

system: A549; assay: NCI tumour cell line growth inhibition, 48 h
The source made the active and inactive calls. Rule as the data show it: active = GI50 up to about 1.1 µM and inactive = higher.
The entries below come with measured GI50 values attached.

Examples with their reported GI50 follow.
>  <Molecule>
COc1ccc(OC)c2c1C(=O)C(Cl)=C(Cl)C2=O

>  <GI50>
22.3 µM (inactive)

$$$$
>  <Molecule>
NP1(Oc2ccc(F)cc2)=NP(N)(Oc2ccc(F)cc2)=NP(Oc2ccc(F)cc2)(Oc2ccc(F)cc2)=N1 (configuration not stated)

>  <GI50>
3.99 µM (inactive)

$$$$

QUERY: // map COC(=O)c1cc(C)ccc1/C=C1\Cc2cccc(C)c2C1=O to recorded GI50 (system: A549)
RESULT: 28.2 µM (inactive)

QUERY: And the next one, COc1c(C)cc(O)cc1C=O ?
RESULT: > 100 µM (inactive)
